Attribution: PubChem BioAssay AID2060496

Test system: 276233-004-R-J1-PDC complex spheroid viability
Experiment: Anticancer human tumor 276233-004-R-J1-PDC patient-derived colon adenocarcinoma cell line growth inhibition [GQUAD]
Conditions: second compound 0.1 µM; first compound 0.0316 µM; stronger effect = lower value
Rule for this label: yes means viability, T/C is less than 90%; no means viability, T/C is at least 90%.

Field: example entries. Status: answers known.
{"Compound": "O=C(c1cc(Cc2n[nH]c(=O)c3ccccc23)ccc1F)N1CCN(C(=O)C2CC2)CC1 + Cc1cnc(CNC(=O)c2c(=O)c3ccc(N4CCCN(C)CC4)nc3n3c2sc2ccccc23)cn1", "Class": "yes"}
{"Compound": "COc1cc(C2c3cc4c(cc3C(OC3OC5COC(C)OC5C(O)C3O)C3COC(=O)C23)OCO4)cc(OC)c1O (stereo not given) + Cc1cnc(CNC(=O)c2c(=O)c3ccc(N4CCCN(C)CC4)nc3n3c2sc2ccccc23)cn1", "Class": "no"}
{"Compound": "CC1COCCN1c1cc(-c2ccnn2C)c2ccnc(-c3ccn[nH]3)c2n1 (stereo not given) + Cc1cnc(CNC(=O)c2c(=O)c3ccc(N4CCCN(C)CC4)nc3n3c2sc2ccccc23)cn1", "Class": "yes"}

Okay, now this compound:
Please check: viability, T/C for COc1ncnc(C2CC2)c1-c1ncc2cnn(Cc3ccc(-c4nc(C(F)(F)F)cn4C(C)C)cc3)c2n1 + Cc1[nH]c2ccc(F)cc2c1-c1nc2c3cccnc3c3ncccc3c2[nH]1 , strictly under 90% or not? yes

----------
Tested on: 276233-004-R-J1-PDC complex spheroid viability
Experiment: Anticancer human tumor 276233-004-R-J1-PDC cell line growth inhibition [GQUAD];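 further: spheroids exposed to drugs for seven days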
Conditions: curve of first compound; second compound 3.16 µM
Metric name: IC50

Examples with their reported IC50 follow.
{"Molecule": "O=C(NO)c1cnc(N2CCN(S(=O)(=O)c3ccc4ccccc4c3)CC2)nc1 + Cc1[nH]c2ccc(F)cc2c1-c1nc2c3cccnc3c3ncccc3c2[nH]1", "Metric name": "IC50", "Value observed": "< 31.6 nM"}
{"Molecule": "O=C(c1cc(Cc2n[nH]c(=O)c3ccccc23)ccc1F)N1CCN(C(=O)C2CC2)CC1 + Cc1[nH]c2ccc(F)cc2c1-c1nc2c3cccnc3c3ncccc3c2[nH]1", "Metric name": "IC50", "Value observed": "> 10000 nM"}
{"Molecule": "CCCS(=O)(=O)Nc1ccc(F)c(C(=O)c2c[nH]c3ncc(-c4ccc(Cl)cc4)cc23)c1F + Cc1cnc(CNC(=O)c2c(=O)c3ccc(N4CCCN(C)CC4)nc3n3c2sc2ccccc23)cn1", "Metric name": "IC50", "Value observed": "> 10000 nM"}
{"Molecule": "C=CC(=O)N1CCN(c2nc(=O)n(-c3c(C)ccnc3C(C)C)c3nc(-c4c(O)cccc4F)c(F)cc23)C(C)C1 (stereo not given) + CN(C)c1ccc(Nc2c3ccc(NC(=O)CCN4CCCC4)cc3nc3cc(NC(=O)CCN4CCCC4)ccc23)cc1", "Metric name": "IC50", "Value observed": "< 31.6 nM"}

The record that follows has no IC50 shown yet.
Entry under review: C#Cc1c(F)ccc2cc(O)cc(-c3ncc4c(N5CC6CCC(C5)N6)nc(OCC56CCCN5CC(F)C6)nc4c3F)c12 (stereo not given) + CN(C)c1ccc(Nc2c3ccc(NC(=O)CCN4CCCC4)cc3nc3cc(NC(=O)CCN4CCCC4)ccc23)cc1 . Reported IC50? < 31.6 nM

----------
Recorded viability, T/C for the following compounds
Test system: 276233-004-R-J1-PDC complex spheroid viability
Test: Anticancer human tumor 276233-004-R-J1-PDC cell line growth inhibition [GQUAD];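 further: spheroids exposed to drugs for seven days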;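 on viability, T/C: 100% = DMSO vehicle control viability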
Settings: second compound 3.16 µM; first compound 1 µM; stronger effect = lower value
Give just the numeric value; % need not be written.

Example results:
{"Compound": "CC1COCCN1c1cc(C2(S(C)(=N)=O)CC2)nc(-c2ccnc3[nH]ccc23)n1 (stereo not given) + CN(C)c1ccc(Nc2c3ccc(NC(=O)CCN4CCCC4)cc3nc3cc(NC(=O)CCN4CCCC4)ccc23)cc1", "Value observed": 46.4}
{"Compound": "O=C(c1cc(Cc2n[nH]c(=O)c3ccccc23)ccc1F)N1CCN(C(=O)C2CC2)CC1 + Cc1cnc(CNC(=O)c2c(=O)c3ccc(N4CCCN(C)CC4)nc3n3c2sc2ccccc23)cn1", "Value observed": 68.4}

For the compound C#Cc1c(F)ccc2cc(O)cc(-c3ncc4c(N5CC6CCC(C5)N6)nc(OCC56CCCN5CC(F)C6)nc4c3F)c12 (stereo not given) + Cc1cnc(CNC(=O)c2c(=O)c3ccc(N4CCCN(C)CC4)nc3n3c2sc2ccccc23)cn1 , what viability, T/C is on record? 53.8

Query CC(C)(O)C1CCC(Nc2ccc3ncc(-c4cccc(C(F)(F)F)c4)n3n2)CC1 (stereo not given) + Cc1cnc(CNC(=O)c2c(=O)c3ccc(N4CCCN(C)CC4)nc3n3c2sc2ccccc23)cn1 next 51.1

Quick one: CC(C)(O)C1CCC(Nc2ccc3ncc(-c4cccc(C(F)(F)F)c4)n3n2)CC1 (stereo not given) + CN(C)c1ccc(Nc2c3ccc(NC(=O)CCN4CCCC4)cc3nc3cc(NC(=O)CCN4CCCC4)ccc23)cc1 39

----------
System: 276233-004-R-J1-PDC complex spheroid viability
Experiment: Anticancer human tumor 276233-004-R-J1-PDC cell line growth inhibition [GQUAD];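 further: spheroids exposed to drugs for seven days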;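 on viability, T/C: 100% = DMSO vehicle control viability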
Conditions: second compound 0.0316 µM; first compound 0.0316 µM; stronger effect = lower value
Hi! Just check whether viability, T/C is below 90%. Below gives t, equal or above gives f.

Example results:
{"Molecule": "Nc1ccn(C2OC(CO)C(O)C2(F)F)c(=O)n1 (stereo unspecified) + CN(C)c1ccc(Nc2c3ccc(NC(=O)CCN4CCCC4)cc3nc3cc(NC(=O)CCN4CCCC4)ccc23)cc1", "Class": "f"}
{"Molecule": "O=C(c1cc(Cc2n[nH]c(=O)c3ccccc23)ccc1F)N1CCN(C(=O)C2CC2)CC1 + Cc1[nH]c2ccc(F)cc2c1-c1nc2c3cccnc3c3ncccc3c2[nH]1", "Class": "f"}
{"Molecule": "C=CCn1c(=O)c2cnc(Nc3ccc(N4CCN(C)CC4)cc3)nc2n1-c1cccc(C(C)(C)O)n1 + Cc1cnc(CNC(=O)c2c(=O)c3ccc(N4CCCN(C)CC4)nc3n3c2sc2ccccc23)cn1", "Class": "f"}
{"Molecule": "O=C(NO)c1cnc(N2CCN(S(=O)(=O)c3ccc4ccccc4c3)CC2)nc1 + CN(C)c1ccc(Nc2c3ccc(NC(=O)CCN4CCCC4)cc3nc3cc(NC(=O)CCN4CCCC4)ccc23)cc1", "Class": "f"}
{"Molecule": "Cn1ncnc1[C@H]1c2n[nH]c(=O)c3cc(F)cc(c23)N[C@@H]1c1ccc(F)cc1 + Cc1[nH]c2ccc(F)cc2c1-c1nc2c3cccnc3c3ncccc3c2[nH]1", "Class": "f"}

Consider C=CC(=O)N1CCN(c2nc(=O)n(-c3c(C)ccnc3C(C)C)c3nc(-c4c(O)cccc4F)c(F)cc23)C(C)C1 (stereo unspecified) + Cc1cnc(CNC(=O)c2c(=O)c3ccc(N4CCCN(C)CC4)nc3n3c2sc2ccccc23)cn1 . Does its viability, T/C lie strictly below 90%? t

Cool, now CC1COCCN1c1cc(-c2ccnn2C)c2ccnc(-c3ccn[nH]3)c2n1 (stereo unspecified) + Cc1cnc(CNC(=O)c2c(=O)c3ccc(N4CCCN(C)CC4)nc3n3c2sc2ccccc23)cn1 f

Same question, CCCS(=O)(=O)Nc1ccc(F)c(C(=O)c2c[nH]c3ncc(-c4ccc(Cl)cc4)cc23)c1F + Cc1cnc(CNC(=O)c2c(=O)c3ccc(N4CCCN(C)CC4)nc3n3c2sc2ccccc23)cn1 this time t

Try this molecule too: CC(C)n1c(=O)n(C)c2cnc3cc(F)c(-c4ccc(OCCCN5CCCCC5)nc4)cc3c21 + Cc1[nH]c2ccc(F)cc2c1-c1nc2c3cccnc3c3ncccc3c2[nH]1 f

Please do the same for Cn1ncnc1[C@H]1c2n[nH]c(=O)c3cc(F)cc(c23)N[C@@H]1c1ccc(F)cc1 + Cc1cnc(CNC(=O)c2c(=O)c3ccc(N4CCCN(C)CC4)nc3n3c2sc2ccccc23)cn1 as well. t

----------
Measured IC50 by item
Tested on: 276233-004-R-J1-PDC complex spheroid viability
Test: Anticancer human tumor 276233-004-R-J1-PDC cell line growth inhibition [GQUAD];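 further: spheroids exposed to drugs for seven days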
Settings: curve of first compound; second compound 1 µM
Enter your answer as a number in nM; do not include the unit.

{"Molecule": "CC(C)(O)C1CCC(Nc2ccc3ncc(-c4cccc(C(F)(F)F)c4)n3n2)CC1 (centres undefined) + Cc1cnc(CNC(=O)c2c(=O)c3ccc(N4CCCN(C)CC4)nc3n3c2sc2ccccc23)cn1", "IC50 / nM": 3000}
{"Molecule": "CC1COCCN1c1cc(C2(S(C)(=N)=O)CC2)nc(-c2ccnc3[nH]ccc23)n1 (centres undefined) + CN(C)c1ccc(Nc2c3ccc(NC(=O)CCN4CCCC4)cc3nc3cc(NC(=O)CCN4CCCC4)ccc23)cc1", "IC50 / nM": 1960}
{"Molecule": "COc1ncnc(C2CC2)c1-c1ncc2cnn(Cc3ccc(-c4nc(C(F)(F)F)cn4C(C)C)cc3)c2n1 + Cc1[nH]c2ccc(F)cc2c1-c1nc2c3cccnc3c3ncccc3c2[nH]1", "IC50 / nM": 886}
{"Molecule": "C#Cc1c(F)ccc2cc(O)cc(-c3ncc4c(N5CC6CCC(C5)N6)nc(OCC56CCCN5CC(F)C6)nc4c3F)c12 (centres undefined) + CN(C)c1ccc(Nc2c3ccc(NC(=O)CCN4CCCC4)cc3nc3cc(NC(=O)CCN4CCCC4)ccc23)cc1", "IC50 / nM": 368}
{"Molecule": "COc1ccc([C@@H](O)c2cc(-c3ncnc4cc(N5CCOCC5)ccc34)c(F)cc2Cl)nn1 + Cc1[nH]c2ccc(F)cc2c1-c1nc2c3cccnc3c3ncccc3c2[nH]1", "IC50 / nM": 5020}
{"Molecule": "CC1COCCN1c1cc(C2(O)CC3CCC(C2)O3)c2cnn(-c3ccn[nH]3)c2n1 (centres undefined) + Cc1cnc(CNC(=O)c2c(=O)c3ccc(N4CCCN(C)CC4)nc3n3c2sc2ccccc23)cn1", "IC50 / nM": 1020}
{"Molecule": "CC(=O)O[C@H]1C(=O)[C@@]2(C)[C@H]([C@H](OC(=O)c3ccccc3)[C@]3(O)C[C@H](OC(=O)[C@H](O)[C@@H](NC(=O)c4ccccc4)c4ccccc4)C(C)=C1C3(C)C)[C@]1(OC(C)=O)CO[C@@H]1C[C@@H]2O + Cc1[nH]c2ccc(F)cc2c1-c1nc2c3cccnc3c3ncccc3c2[nH]1", "IC50 / nM": 341}
{"Molecule": "CC(C)(O)C1CCC(Nc2ccc3ncc(-c4cccc(C(F)(F)F)c4)n3n2)CC1 (centres undefined) + CN(C)c1ccc(Nc2c3ccc(NC(=O)CCN4CCCC4)cc3nc3cc(NC(=O)CCN4CCCC4)ccc23)cc1", "IC50 / nM": 1060}

Given the entry CC(=O)O[C@H]1C(=O)[C@@]2(C)[C@H]([C@H](OC(=O)c3ccccc3)[C@]3(O)C[C@H](OC(=O)[C@H](O)[C@@H](NC(=O)c4ccccc4)c4ccccc4)C(C)=C1C3(C)C)[C@]1(OC(C)=O)CO[C@@H]1C[C@@H]2O + CN(C)c1ccc(Nc2c3ccc(NC(=O)CCN4CCCC4)cc3nc3cc(NC(=O)CCN4CCCC4)ccc23)cc1 , report its measured IC50. 4250

Another molecule to check: CC1COCCN1c1cc(-c2ccnn2C)c2ccnc(-c3ccn[nH]3)c2n1 (centres undefined) + Cc1[nH]c2ccc(F)cc2c1-c1nc2c3cccnc3c3ncccc3c2[nH]1 7210
